Target: T1, thyroid stimulating hormone receptor (full length human TSHR) (human, UniProt P16473 22-764)
T1 construct: Full length TSHR coated onto plastic tubes (TSHR coated tubes, as in WO2004/050708A2); also called TSH receptor
Assay: competitor ^125I-K1-70 IgG, TSHR coated tubes; 3 µg/mL in HBD
METRIC: Inhibition of binding (%)
Give bare numbers, in %.

Examples from the recorded data:
- BINDER: "K1-18 IgG (antibody, V domains shown, Human IgG1 kappa purified from hetero-hybridoma supernatant; it is not part of the secreted protein; also called human monoclonal TSHR autoantibody K1-18 (stimulating)) VH: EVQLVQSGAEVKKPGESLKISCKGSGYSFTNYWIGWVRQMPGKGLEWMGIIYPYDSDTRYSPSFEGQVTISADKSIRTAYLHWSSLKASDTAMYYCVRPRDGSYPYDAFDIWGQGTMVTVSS VL: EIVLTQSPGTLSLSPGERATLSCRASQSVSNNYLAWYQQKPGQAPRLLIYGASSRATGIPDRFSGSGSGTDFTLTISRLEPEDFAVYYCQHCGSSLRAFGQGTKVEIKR"
  MEAS_VALUE: 91
- BINDER: "K1-70 IgG (antibody, V domains shown, Human IgG1 lambda purified from hetero-hybridoma supernatant) VH: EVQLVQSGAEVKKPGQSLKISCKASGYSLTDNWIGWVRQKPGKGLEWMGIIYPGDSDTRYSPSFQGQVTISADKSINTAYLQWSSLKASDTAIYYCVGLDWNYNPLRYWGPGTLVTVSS VL: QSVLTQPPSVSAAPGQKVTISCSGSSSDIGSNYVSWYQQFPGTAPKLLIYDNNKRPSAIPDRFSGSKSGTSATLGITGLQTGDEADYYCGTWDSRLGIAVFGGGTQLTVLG"
  MEAS_VALUE: 91.7

Then there is this binder:
Need Inhibition of binding (%), item K1-70 Fab (Fab, V domains shown) VH: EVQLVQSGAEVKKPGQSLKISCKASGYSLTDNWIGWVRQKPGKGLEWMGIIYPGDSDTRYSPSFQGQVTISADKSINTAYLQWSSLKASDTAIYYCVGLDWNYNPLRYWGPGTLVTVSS VL: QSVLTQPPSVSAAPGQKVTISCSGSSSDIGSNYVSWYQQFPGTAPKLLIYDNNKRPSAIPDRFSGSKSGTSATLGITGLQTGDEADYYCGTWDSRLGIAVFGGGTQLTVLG
90.9
